# Target desc: T1, CRBN, Q96SW2;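 further: pooled lentiviral library of zinc finger degron-EGFP fusions in mCherry-positive Jurkat cells, FACS-sorted after compound exposure, with degron abundance counted by next-generation sequencing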
# T1 chain: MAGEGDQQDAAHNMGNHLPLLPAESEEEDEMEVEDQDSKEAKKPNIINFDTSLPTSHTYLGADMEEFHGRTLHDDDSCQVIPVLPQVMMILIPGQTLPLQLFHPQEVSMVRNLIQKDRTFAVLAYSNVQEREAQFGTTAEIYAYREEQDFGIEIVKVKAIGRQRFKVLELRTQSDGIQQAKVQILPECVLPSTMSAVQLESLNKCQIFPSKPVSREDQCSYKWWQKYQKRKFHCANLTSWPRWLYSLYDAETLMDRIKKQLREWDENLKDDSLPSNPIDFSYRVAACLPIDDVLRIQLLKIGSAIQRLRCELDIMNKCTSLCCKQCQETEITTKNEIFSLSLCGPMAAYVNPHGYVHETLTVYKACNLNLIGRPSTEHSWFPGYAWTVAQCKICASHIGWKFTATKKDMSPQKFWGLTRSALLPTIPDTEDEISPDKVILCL
# Method notes: log2 fold change of degron read counts, EGFP-low vs EGFP+ sorted cells (limma voom), compound-induced degradation; higher = more compound-induced degradation of the degron-EGFP fusion; degrons are variants of IKZF1/3 zinc finger 2; compound dose not given here
# Condition context: Jurkat; 18 h; compound: compound 19 (5-tert-butyl-thalidomide)
Over roughly 8,300 sequences, “log2 fold change of degron read counts, EGFP-low vs EGFP+ sorted cells (limma voom), compound-induced degradation” has its median near -1.1; the highest 2% begin near 3.2. Shown is part of a subset that was picked to be rich in the highest values.
Endpoint name: log2 fold change of degron read counts
No unit in the answer, only the number.

| Sequence entry | Endpoint name | Test result |
| --- | --- | --- |
| FRCEICGRPFTQKGNLLRHIKL [46F_47R_49E_50I_52G_53R_54P_55F_67L_, Q9UKT9] | log2 fold change of degron read counts | -0.208 |
| FDCDQCGAEFTQKGNLLRHIKL [46F_47D_49D_50Q_52G_53A_54E_55F_67L_, Q9UKT9] | log2 fold change of degron read counts | -3.44 |
| FNCDICGAEFTQKGNLLRHIKL [46F_47N_49D_50I_52G_53A_54E_55F_67L_, Q9UKT9] | log2 fold change of degron read counts | 0.228 |

Please examine the following record next.
**Query** Request the reported log2 fold change of degron read counts associated with FICEICGAVFTQKGNLLRHIKL [46F_47I_49E_50I_52G_53A_54V_55F_67L_, Q9UKT9]
**Result** -0.571
